The reported numbers originate from the Human Domainome abundance scans (Beltran et al. 2025).

B1: Calcium-binding protein 2, residues 155 to 219; numbered along this chain, Q9NPB3 (parent)
chain: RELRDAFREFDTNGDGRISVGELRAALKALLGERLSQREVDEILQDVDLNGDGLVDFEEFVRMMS

variants of: B1; test: abundance fitness (aPCA) (normalised: wild type 0, dead -1); higher = more abundant; growth selection in yeast, the domain comes from the species named; conditions: Homo sapiens
Everything with abundance fitness lower than -0.2 is label 0; everything else, including exactly -0.2, is label 1.

Prompt: Is reported abundance fitness greater than or equal to -0.2 here: R38T
Completion: label 1

Prompt: Is reported abundance fitness greater than or equal to -0.2 here: G53R
Completion: label 0

Prompt: Is reported abundance fitness greater than or equal to -0.2 here: I18G
Completion: label 0

Prompt: Is reported abundance fitness greater than or equal to -0.2 here: E22Q
Completion: label 0

Prompt: Is reported abundance fitness greater than or equal to -0.2 here: A25R
Completion: label 1

Prompt: Is reported abundance fitness greater than or equal to -0.2 here: G16M
Completion: label 0

Prompt: Is reported abundance fitness greater than or equal to -0.2 here: A25L
Completion: label 1

Prompt: Is reported abundance fitness greater than or equal to -0.2 here: L44W
Completion: label 0
